- tgt: PIK3CB (Human) (UniProt P42338)
- Sequence (P42338 whole entry, looked up): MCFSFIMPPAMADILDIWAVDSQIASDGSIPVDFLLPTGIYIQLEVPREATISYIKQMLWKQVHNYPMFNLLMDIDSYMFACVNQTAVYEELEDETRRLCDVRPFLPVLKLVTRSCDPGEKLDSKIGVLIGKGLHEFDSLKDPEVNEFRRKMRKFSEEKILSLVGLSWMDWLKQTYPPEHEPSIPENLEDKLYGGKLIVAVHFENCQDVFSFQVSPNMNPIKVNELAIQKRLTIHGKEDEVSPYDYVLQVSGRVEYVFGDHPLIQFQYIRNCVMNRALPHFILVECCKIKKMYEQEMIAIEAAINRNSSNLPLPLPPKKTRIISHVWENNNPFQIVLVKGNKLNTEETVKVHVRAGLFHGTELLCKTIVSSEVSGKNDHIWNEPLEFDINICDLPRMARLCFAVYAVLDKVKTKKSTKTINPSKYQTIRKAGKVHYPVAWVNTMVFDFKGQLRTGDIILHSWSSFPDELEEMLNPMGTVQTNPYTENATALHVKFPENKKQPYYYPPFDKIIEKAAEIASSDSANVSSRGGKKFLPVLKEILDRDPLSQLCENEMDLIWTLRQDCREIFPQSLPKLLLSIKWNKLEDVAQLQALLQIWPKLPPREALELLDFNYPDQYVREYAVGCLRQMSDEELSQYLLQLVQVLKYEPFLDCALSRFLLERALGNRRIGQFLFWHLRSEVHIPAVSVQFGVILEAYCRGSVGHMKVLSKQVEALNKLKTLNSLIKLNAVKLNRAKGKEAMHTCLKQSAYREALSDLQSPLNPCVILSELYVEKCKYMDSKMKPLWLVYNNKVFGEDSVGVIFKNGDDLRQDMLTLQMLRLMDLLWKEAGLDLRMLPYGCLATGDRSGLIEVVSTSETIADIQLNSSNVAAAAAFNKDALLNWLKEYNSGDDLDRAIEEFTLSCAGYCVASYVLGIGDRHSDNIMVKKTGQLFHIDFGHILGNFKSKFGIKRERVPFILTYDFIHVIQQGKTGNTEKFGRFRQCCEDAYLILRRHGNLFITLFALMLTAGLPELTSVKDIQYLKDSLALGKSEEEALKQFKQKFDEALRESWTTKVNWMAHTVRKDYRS
pIC50: −log10 of the molar value.
metric: pIC50

{"compound": "CNc1nsc2cc(-c3ccc4ncc(C(=O)N5CCOCC5)n4c3)ccc12", "metric": "pIC50", "meas.value": "< 5.00"}
{"compound": "CC1CN(C(=O)c2cnc3ccc(-c4ccc5oc(N)nc5c4)cn23)CCN1 (stereo unspecified)", "metric": "pIC50", "meas.value": "6.00 to 7.00"}
{"compound": "NC(=O)[C@H]1CCCN1c1cnc2ccc(-c3ccc4oc(N)nc4c3)cc2n1", "metric": "pIC50", "meas.value": "> 7.00"}
{"compound": "C[C@H]1CN(c2cnc3ccc(-c4ccc5oc(N)nc5c4)cc3c2)CCN1", "metric": "pIC50", "meas.value": "> 7.00"}
{"compound": "Nc1nc2cc(-c3ccc4ncc(NCCN5CCOCC5)nc4c3)ccc2o1", "metric": "pIC50", "meas.value": "6.00 to 7.00"}
{"compound": "Nc1nc2cc(-c3ccc4ncc(C(=O)N5CCC(N6CCC(F)(F)C6)C5)n4c3)ccc2o1 (stereo unspecified)", "metric": "pIC50", "meas.value": "< 5.00"}
{"compound": "Nc1nc2ccc(-c3ccc4nccc(-c5ccncc5)c4c3)cc2s1", "metric": "pIC50", "meas.value": "< 5.00"}
{"compound": "Nc1nc2cc(-c3ccc4ncc(-c5cn[nH]c5)n4n3)ccc2o1", "metric": "pIC50", "meas.value": "> 7.00"}
{"compound": "Nc1nc2cc(-c3ccc4ncc(-c5ccncc5)n4n3)ccc2o1", "metric": "pIC50", "meas.value": "6.00 to 7.00"}
{"compound": "CC(=O)Nc1nc2ccc(-c3ccc4oc(N)nc4c3)cc2s1", "metric": "pIC50", "meas.value": "6.00 to 7.00"}
{"compound": "CN1CCN(n2cnc3ccc(-c4ccc5oc(N)nc5c4)cc3c2=O)CC1", "metric": "pIC50", "meas.value": "< 5.00"}

* * *

Recorded measurements of IC50, one per entry
- tgt: UniProtKB P42336
- test.summary: Cell-Based Assay
- assay.context: t47d

{"chemical.smiles": "Nc1nc2cc(-c3ccn4ncc(-c5ccncc5)c4c3)ccc2o1", "tgt": "UniProtKB P42336", "IC50": "100 to 1000 nM"}
{"chemical.smiles": "CC(=O)N1CCC(Nc2ncnc3ccc(-c4ccc5oc(N)nc5c4)nc23)CC1", "tgt": "UniProtKB P42336", "IC50": "100 to 1000 nM"}
{"chemical.smiles": "CN1CC(C(=O)N2CCC(Nc3ncnc4ccc(-c5ccc6oc(N)nc6c5)cc34)CC2)C1", "tgt": "UniProtKB P42336", "IC50": "> 10000 nM"}
{"chemical.smiles": "Nc1nc2cc(-c3ccc4ncc(N5CCNC(=O)C5)nc4c3)ccc2o1", "tgt": "UniProtKB P42336", "IC50": "100 to 1000 nM"}
{"chemical.smiles": "CN1CCN(C2CN(C(=O)c3cnc4ccc(-c5ccc6oc(N)nc6c5)cn34)C2)CC1", "tgt": "UniProtKB P42336", "IC50": "100 to 1000 nM"}

* * *

- tgt: UniProt:P48736
- Sequence (P48736 whole entry, looked up): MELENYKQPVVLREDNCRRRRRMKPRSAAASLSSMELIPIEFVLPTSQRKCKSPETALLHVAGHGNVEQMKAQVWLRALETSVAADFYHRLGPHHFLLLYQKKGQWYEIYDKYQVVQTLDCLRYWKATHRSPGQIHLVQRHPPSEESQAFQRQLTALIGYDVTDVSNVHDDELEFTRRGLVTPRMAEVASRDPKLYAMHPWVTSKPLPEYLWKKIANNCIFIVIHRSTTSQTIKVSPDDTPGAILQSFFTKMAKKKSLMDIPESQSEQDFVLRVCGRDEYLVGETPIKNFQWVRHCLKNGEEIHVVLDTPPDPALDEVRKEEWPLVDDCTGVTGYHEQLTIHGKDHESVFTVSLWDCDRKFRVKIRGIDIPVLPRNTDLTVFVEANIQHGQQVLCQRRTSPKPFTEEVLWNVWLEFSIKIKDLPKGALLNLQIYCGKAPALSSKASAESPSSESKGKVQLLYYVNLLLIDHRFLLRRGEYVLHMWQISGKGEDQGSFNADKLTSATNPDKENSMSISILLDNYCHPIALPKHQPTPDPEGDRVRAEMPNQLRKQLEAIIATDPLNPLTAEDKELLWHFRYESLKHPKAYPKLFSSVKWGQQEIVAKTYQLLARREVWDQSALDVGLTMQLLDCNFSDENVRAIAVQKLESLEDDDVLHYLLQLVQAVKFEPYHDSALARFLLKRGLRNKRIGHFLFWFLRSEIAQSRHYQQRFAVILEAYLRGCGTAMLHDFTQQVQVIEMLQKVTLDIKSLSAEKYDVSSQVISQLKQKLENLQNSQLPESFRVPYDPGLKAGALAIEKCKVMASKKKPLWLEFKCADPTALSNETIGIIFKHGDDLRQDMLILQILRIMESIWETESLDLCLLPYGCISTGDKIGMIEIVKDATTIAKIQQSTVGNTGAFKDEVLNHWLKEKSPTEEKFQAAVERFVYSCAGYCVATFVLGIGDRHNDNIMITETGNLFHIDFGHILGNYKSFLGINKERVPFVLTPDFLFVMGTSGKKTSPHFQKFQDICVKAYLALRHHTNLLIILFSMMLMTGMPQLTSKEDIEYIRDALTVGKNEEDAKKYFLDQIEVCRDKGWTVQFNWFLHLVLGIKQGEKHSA
- test.summary: Enzyme Assay
pIC50: −log10 of the molar value.
metric: pIC50

{"molecule": "Nc1nc2cc(-c3ccc4nccc(-c5ccncc5)c4c3)ccc2o1", "metric": "pIC50", "meas.value": "> 7.00"}
{"molecule": "C[C@H]1CN(c2cnc3ccc(-c4cccc5c(N)nsc45)cc3n2)CCN1", "metric": "pIC50", "meas.value": "> 7.00"}
{"molecule": "NC1=NC2C=C(c3ccc4oc(N)nc4c3)C=CC2O1 (stereo unspecified)", "metric": "pIC50", "meas.value": "> 7.00"}
{"molecule": "CC(=O)Nc1nc2ccc(-c3ccc4oc(N)nc4c3)cc2s1", "metric": "pIC50", "meas.value": "> 7.00"}
{"molecule": "CN1CCN(n2cnc3ccc(-c4ccc5oc(N)nc5c4)cc3c2=O)CC1", "metric": "pIC50", "meas.value": "< 5.00"}
{"molecule": "Nc1nc2cc(-c3ccc4ncc(N[C@H]5CC[C@H](O)CC5)nc4c3)ccc2o1", "metric": "pIC50", "meas.value": "> 7.00"}
{"molecule": "CC1CN(C(=O)c2cnc3ccc(-c4ccc5oc(N)nc5c4)cn23)CCN1 (stereo unspecified)", "metric": "pIC50", "meas.value": "< 5.00"}
{"molecule": "CS(=O)(=O)N1CCC(n2cnc3ccc(-c4ccc5oc(N)nc5c4)cc3c2=O)CC1", "metric": "pIC50", "meas.value": "< 5.00"}
{"molecule": "CC1(C)CN(C2CN(C(=O)c3cnc4ccc(-c5ccc6oc(N)nc6c5)cn34)C2)CCN1", "metric": "pIC50", "meas.value": "6.00 to 7.00"}
{"molecule": "CN1CCN(S(=O)(=O)c2cnc3ccc(-c4ccc5oc(N)nc5c4)cn23)CC1", "metric": "pIC50", "meas.value": "< 5.00"}
{"molecule": "Nc1nc2cc(-c3ccc4ncc(C(=O)N[C@H]5CC[C@H](O)CC5)n4c3)ccc2o1", "metric": "pIC50", "meas.value": "> 7.00"}
{"molecule": "Nc1nc2cc(-c3ccc4ncc(-c5ccncc5)n4c3)ccc2o1", "metric": "pIC50", "meas.value": "> 7.00"}
{"molecule": "Nc1nc2cc(-c3ccc4ncc(-c5cn[nH]c5)n4n3)ccc2o1", "metric": "pIC50", "meas.value": "> 7.00"}
{"molecule": "Nc1nc2cc(-c3ccc4ncc(S(=O)(=O)N5CCOCC5)n4c3)ccc2o1", "metric": "pIC50", "meas.value": "< 5.00"}
{"molecule": "Nc1nc2cc(-c3ccc4ncc(C(=O)N5CCC(O)C5)n4c3)ccc2o1 (stereo unspecified)", "metric": "pIC50", "meas.value": "6.00 to 7.00"}
{"molecule": "Nc1nc2ccc(-c3ccc4nccc(-c5ccncc5)c4c3)cc2o1", "metric": "pIC50", "meas.value": "> 7.00"}
{"molecule": "Nc1nc2cc(-c3ccc4ncc(C(=O)N5C6CCC5COC6)n4c3)ccc2o1", "metric": "pIC50", "meas.value": "> 7.00"}
{"molecule": "NC1=NC2C=C(c3ccc4nc(N)oc4c3)C=CC2O1 (stereo unspecified)", "metric": "pIC50", "meas.value": "> 7.00"}
{"molecule": "CNc1nsc2cc(-c3ccc4ncc(C(=O)N5CCOCC5)n4c3)ccc12", "metric": "pIC50", "meas.value": "< 5.00"}
{"molecule": "COC(=O)N1CCC(N2N=CC3C(N4CCOCC4)=NC(c4ccc5oc(N)nc5c4)=NC32)CC1 (stereo unspecified)", "metric": "pIC50", "meas.value": "< 5.00"}
{"molecule": "NC(=O)[C@H]1CCCN1c1cnc2ccc(-c3ccc4oc(N)nc4c3)cc2n1", "metric": "pIC50", "meas.value": "> 7.00"}

* * *

- tgt: PIK3CA (human) (UniProt P42336)
- Sequence (P42336 whole entry, looked up): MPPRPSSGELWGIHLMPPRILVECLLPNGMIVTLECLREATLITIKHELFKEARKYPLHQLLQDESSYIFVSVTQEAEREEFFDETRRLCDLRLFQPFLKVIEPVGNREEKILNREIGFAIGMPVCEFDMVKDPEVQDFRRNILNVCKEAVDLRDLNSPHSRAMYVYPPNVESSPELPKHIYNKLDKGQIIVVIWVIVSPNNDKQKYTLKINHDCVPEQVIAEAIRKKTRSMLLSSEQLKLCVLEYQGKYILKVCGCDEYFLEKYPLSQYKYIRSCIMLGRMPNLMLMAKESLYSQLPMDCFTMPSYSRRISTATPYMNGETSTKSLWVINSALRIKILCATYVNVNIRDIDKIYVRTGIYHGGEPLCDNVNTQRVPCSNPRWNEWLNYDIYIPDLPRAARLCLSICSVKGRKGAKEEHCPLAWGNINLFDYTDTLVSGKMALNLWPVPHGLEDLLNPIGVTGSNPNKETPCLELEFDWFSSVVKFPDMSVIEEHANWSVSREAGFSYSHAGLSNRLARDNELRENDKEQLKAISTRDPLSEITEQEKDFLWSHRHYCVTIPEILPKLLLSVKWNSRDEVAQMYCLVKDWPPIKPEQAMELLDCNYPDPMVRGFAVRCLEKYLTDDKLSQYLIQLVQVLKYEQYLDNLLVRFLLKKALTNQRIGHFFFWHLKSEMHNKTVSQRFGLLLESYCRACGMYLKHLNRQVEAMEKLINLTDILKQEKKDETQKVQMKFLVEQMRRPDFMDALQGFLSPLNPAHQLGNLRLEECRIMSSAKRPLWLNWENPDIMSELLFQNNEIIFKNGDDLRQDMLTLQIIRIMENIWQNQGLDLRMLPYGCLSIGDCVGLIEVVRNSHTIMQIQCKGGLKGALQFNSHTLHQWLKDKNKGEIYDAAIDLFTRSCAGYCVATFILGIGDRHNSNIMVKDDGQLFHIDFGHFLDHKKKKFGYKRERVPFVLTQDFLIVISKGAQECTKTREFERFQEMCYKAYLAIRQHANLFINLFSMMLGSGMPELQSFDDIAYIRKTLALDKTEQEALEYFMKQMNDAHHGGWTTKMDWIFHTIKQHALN
- test.summary: Cell-Based Assay
- assay.context: pc3
Recorded measurements of IC50, one per entry

{"chemical.smiles": "O=C(c1cnc2ccc(-c3cnc(Cl)c(NS(=O)(=O)c4cccc(F)c4)c3)cn12)N1CCOCC1", "tgt": "PIK3CA (human) (UniProt P42336)", "IC50": "100 to 1000 nM"}
{"chemical.smiles": "Nc1nc2ccc(-c3ccc4nccc(-c5ccncc5)c4c3)cc2o1", "tgt": "PIK3CA (human) (UniProt P42336)", "IC50": "< 100 nM"}
{"chemical.smiles": "Nc1nc2cc(-c3ccc4ncc(C(=O)N5C6CCC5COC6)n4c3)ccc2o1", "tgt": "PIK3CA (human) (UniProt P42336)", "IC50": "100 to 1000 nM"}
{"chemical.smiles": "Nc1nc2cc(-c3ccc4ncc(C(=O)N5CC[C@H](n6cccn6)C5)n4c3)ccc2o1", "tgt": "PIK3CA (human) (UniProt P42336)", "IC50": "100 to 1000 nM"}
{"chemical.smiles": "Nc1nc2cc(-c3ccc4nccc(-c5ccncc5)c4c3)ccc2o1", "tgt": "PIK3CA (human) (UniProt P42336)", "IC50": "100 to 1000 nM"}
{"chemical.smiles": "Cn1c(=O)n(-c2ccc(C(C)(C)C#N)cc2)c2c3cc(-c4ccc5oc(N)nc5c4)ccc3ncc21", "tgt": "PIK3CA (human) (UniProt P42336)", "IC50": "< 100 nM"}
{"chemical.smiles": "COc1ncc(-c2ccc3ncn(C4CCN(C)CC4)c(=O)c3c2)cc1NS(=O)(=O)c1ccccc1", "tgt": "PIK3CA (human) (UniProt P42336)", "IC50": "100 to 1000 nM"}
{"chemical.smiles": "CC(=O)Nc1cn2cc(-c3ccc4oc(N)nc4c3)ccc2n1", "tgt": "PIK3CA (human) (UniProt P42336)", "IC50": "< 100 nM"}
{"chemical.smiles": "O=C(c1cnc2ccc(-c3cnc(Cl)c(NS(=O)(=O)c4ccccc4)c3)cn12)N1CCOCC1", "tgt": "PIK3CA (human) (UniProt P42336)", "IC50": "100 to 1000 nM"}
{"chemical.smiles": "C[C@@H]1CN(C2CN(C(=O)c3cnc4ccc(-c5ccc6oc(N)nc6c5)cn34)C2)CCN1C", "tgt": "PIK3CA (human) (UniProt P42336)", "IC50": "100 to 1000 nM"}
{"chemical.smiles": "Nc1nc2cc(-c3ccc4ncc(-c5ccncc5)n4n3)ccc2o1", "tgt": "PIK3CA (human) (UniProt P42336)", "IC50": "100 to 1000 nM"}
{"chemical.smiles": "COc1ncc(-c2ccc3ncn(C4CCN(C(C)C)CC4)c(=O)c3c2)cc1NS(=O)(=O)c1ccccc1", "tgt": "PIK3CA (human) (UniProt P42336)", "IC50": "100 to 1000 nM"}
